Values from patent US20230271947A1

Reported Total related % is given for each of the following molecules.
method-summary: Stability investigation of crystal forms A, B, C, D and the amorphous form of the compound of formula (1) (related substances by HPLC, moisture, XRD, DSC)
Format: physicochemical
cond: 40° C., RH 75%, closed, 1 M

C[C@H]1CCN1c1nc(N2C[C@@H]3[C@@H](CC(=O)O)[C@@H]3C2)c2c(n1)C(F)(F)CC2 [Amorphous form] : 2.98%

Indicate the recorded Total related % value for this molecule: C[C@H]1CCN1c1nc(N2C[C@@H]3[C@@H](CC(=O)O)[C@@H]3C2)c2c(n1)C(F)(F)CC2 [Crystal form C]
1.30%

Please report the measured Total related % for C[C@H]1CCN1c1nc(N2C[C@@H]3[C@@H](CC(=O)O)[C@@H]3C2)c2c(n1)C(F)(F)CC2 [Crystal form D]
0.38%

Indicate the recorded Total related % value for this molecule: C[C@H]1CCN1c1nc(N2C[C@@H]3[C@@H](CC(=O)O)[C@@H]3C2)c2c(n1)C(F)(F)CC2 [Crystal form B]
0.08%

Determine its reported Total related %: C[C@H]1CCN1c1nc(N2C[C@@H]3[C@@H](CC(=O)O)[C@@H]3C2)c2c(n1)C(F)(F)CC2 [Crystal form A]
0.22%

---

method-summary: Stability investigation of crystal forms A, B, C, D and the amorphous form of the compound of formula (1) (related substances by HPLC, moisture, XRD, DSC)
Format: physicochemical
cond: 40° C., RH 75%, opened, 1 M
This listing pairs compounds with measured DSC.
Could you give me the number in °C? Just the number is fine.

C[C@H]1CCN1c1nc(N2C[C@@H]3[C@@H](CC(=O)O)[C@@H]3C2)c2c(n1)C(F)(F)CC2 [Crystal form D] : 167.75

Kindly indicate its recorded DSC. Item: C[C@H]1CCN1c1nc(N2C[C@@H]3[C@@H](CC(=O)O)[C@@H]3C2)c2c(n1)C(F)(F)CC2 [Crystal form B]
169.43

Annotate the compound C[C@H]1CCN1c1nc(N2C[C@@H]3[C@@H](CC(=O)O)[C@@H]3C2)c2c(n1)C(F)(F)CC2 [Crystal form C] with its measured DSC.
172.35

Item C[C@H]1CCN1c1nc(N2C[C@@H]3[C@@H](CC(=O)O)[C@@H]3C2)c2c(n1)C(F)(F)CC2 [Crystal form A] : provide DSC
170.32

---

method-summary: Stability investigation of crystal forms A, B, C, D and the amorphous form of the compound of formula (1) (related substances by HPLC, moisture, XRD, DSC)
Type: physicochemical
cond: 60° C., closed, 10 days
// values below are reported DSC
// unit must come after the numeric part

Check out these entries, answers already filled in.
C[C@H]1CCN1c1nc(N2C[C@@H]3[C@@H](CC(=O)O)[C@@H]3C2)c2c(n1)C(F)(F)CC2 [Crystal form B] : 169.35 °C
C[C@H]1CCN1c1nc(N2C[C@@H]3[C@@H](CC(=O)O)[C@@H]3C2)c2c(n1)C(F)(F)CC2 [Crystal form A] : 170.34 °C
C[C@H]1CCN1c1nc(N2C[C@@H]3[C@@H](CC(=O)O)[C@@H]3C2)c2c(n1)C(F)(F)CC2 [Crystal form D] : 167.43 °C

Answer with the recorded DSC for the molecule listed here: C[C@H]1CCN1c1nc(N2C[C@@H]3[C@@H](CC(=O)O)[C@@H]3C2)c2c(n1)C(F)(F)CC2 [Crystal form C]
172.21 °C

---

method-summary: Stability investigation of crystal forms A, B, C, D and the amorphous form of the compound of formula (1) (related substances by HPLC, moisture, XRD, DSC)
Type: physicochemical
cond: under the above conditions (all placement conditions of the study)
recorded-endpoint: Stability, testing conclusion

C[C@H]1CCN1c1nc(N2C[C@@H]3[C@@H](CC(=O)O)[C@@H]3C2)c2c(n1)C(F)(F)CC2 [Crystal form D] : relatively stable
C[C@H]1CCN1c1nc(N2C[C@@H]3[C@@H](CC(=O)O)[C@@H]3C2)c2c(n1)C(F)(F)CC2 [Crystal form B] : relatively stable
C[C@H]1CCN1c1nc(N2C[C@@H]3[C@@H](CC(=O)O)[C@@H]3C2)c2c(n1)C(F)(F)CC2 [Crystal form A] : relatively stable

---

method-summary: Stability investigation of crystal forms A, B, C, D and the amorphous form of the compound of formula (1) (related substances by HPLC, moisture, XRD, DSC)
Assay type: physicochemical
cond: 60° C., opened, 10 days
Define the label as met when Total related % is strictly less than 0.4% and as not met in all remaining cases.

C[C@H]1CCN1c1nc(N2C[C@@H]3[C@@H](CC(=O)O)[C@@H]3C2)c2c(n1)C(F)(F)CC2 [Crystal form C] : not met
C[C@H]1CCN1c1nc(N2C[C@@H]3[C@@H](CC(=O)O)[C@@H]3C2)c2c(n1)C(F)(F)CC2 [Crystal form B] : met
C[C@H]1CCN1c1nc(N2C[C@@H]3[C@@H](CC(=O)O)[C@@H]3C2)c2c(n1)C(F)(F)CC2 [Crystal form A] : met

Read the next record carefully.
Just wondering, is Total related % of C[C@H]1CCN1c1nc(N2C[C@@H]3[C@@H](CC(=O)O)[C@@H]3C2)c2c(n1)C(F)(F)CC2 [Amorphous form] below 0.4%?
not met

---

method-summary: Stability investigation of crystal forms A, B, C, D and the amorphous form of the compound of formula (1) (related substances by HPLC, moisture, XRD, DSC)
Format: physicochemical
cond: 60° C., closed, 10 days
recorded-endpoint: Trait

C[C@H]1CCN1c1nc(N2C[C@@H]3[C@@H](CC(=O)O)[C@@H]3C2)c2c(n1)C(F)(F)CC2 [Crystal form C] : Off-white power
C[C@H]1CCN1c1nc(N2C[C@@H]3[C@@H](CC(=O)O)[C@@H]3C2)c2c(n1)C(F)(F)CC2 [Crystal form D] : Off-white power
C[C@H]1CCN1c1nc(N2C[C@@H]3[C@@H](CC(=O)O)[C@@H]3C2)c2c(n1)C(F)(F)CC2 [Crystal form A] : Off-white power
C[C@H]1CCN1c1nc(N2C[C@@H]3[C@@H](CC(=O)O)[C@@H]3C2)c2c(n1)C(F)(F)CC2 [Amorphous form] : Off-white power

---

System: D-Fructose-induced fructose-1-phosphate in HepG2 cells
method-summary: In vitro cell inhibitory activity test: D-Fructose-induced fructose-1-phosphate in HepG2 cells (LC-MS)
Type: cell-based
cond: D-Fructose 3 h, read-out: EC50 (nM), inhibition of D-Fructose-induced fructose-1-phosphate
recorded-endpoint: EC50 (nM)
Answer with a number only, understood to be in nM.

Tell me EC50 of `C[C@H]1CCN1c1nc(N2C[C@@H]3[C@@H](CC(=O)O)[C@@H]3C2)cc(C(F)(F)F)n1` when tested on D-Fructose-induced fructose-1-phosphate in HepG2 cells.
169

---

method-summary: Stability investigation of crystal forms A, B, C, D and the amorphous form of the compound of formula (1) (related substances by HPLC, moisture, XRD, DSC)
Format: physicochemical
cond: 60° C., opened, 10 days
Catalogue of molecules with associated DSC
Numeric answer only, unit °C assumed.

C[C@H]1CCN1c1nc(N2C[C@@H]3[C@@H](CC(=O)O)[C@@H]3C2)c2c(n1)C(F)(F)CC2 [Crystal form A] : 170.26
C[C@H]1CCN1c1nc(N2C[C@@H]3[C@@H](CC(=O)O)[C@@H]3C2)c2c(n1)C(F)(F)CC2 [Crystal form C] : 172.21
C[C@H]1CCN1c1nc(N2C[C@@H]3[C@@H](CC(=O)O)[C@@H]3C2)c2c(n1)C(F)(F)CC2 [Crystal form D] : 167.41

With those in mind, consider the next molecule.
Give the value of DSC reported for the following: C[C@H]1CCN1c1nc(N2C[C@@H]3[C@@H](CC(=O)O)[C@@H]3C2)c2c(n1)C(F)(F)CC2 [Crystal form B]
169.27

---

method-summary: Stability investigation of crystal forms A, B, C, D and the amorphous form of the compound of formula (1) (related substances by HPLC, moisture, XRD, DSC)
Assay type: physicochemical
cond: 40° C., RH 75%, closed, 1 M
Text: […] Determination of related substances: determined according to 0512 HPLC in General Principle (Volume IV) of Chinese Pharmacopoeia (2015 Version). Moisture determination: determined according to 2 Coulometric Titration in the First Method (Karl Fischer titration) of 0832 Moisture Determination Method in General Principle (Volume IV) of Chinese Pharmacopoeia (2015 Version). […]
recorded-endpoint: DSC (°C)
A number alone suffices; assume °C.

C[C@H]1CCN1c1nc(N2C[C@@H]3[C@@H](CC(=O)O)[C@@H]3C2)c2c(n1)C(F)(F)CC2 [Crystal form B] : 169.57
C[C@H]1CCN1c1nc(N2C[C@@H]3[C@@H](CC(=O)O)[C@@H]3C2)c2c(n1)C(F)(F)CC2 [Crystal form A] : 170.38
C[C@H]1CCN1c1nc(N2C[C@@H]3[C@@H](CC(=O)O)[C@@H]3C2)c2c(n1)C(F)(F)CC2 [Crystal form C] : 172.36

Return reported DSC. Input molecule: C[C@H]1CCN1c1nc(N2C[C@@H]3[C@@H](CC(=O)O)[C@@H]3C2)c2c(n1)C(F)(F)CC2 [Crystal form D]
167.77
